Cited source: patent US20250027068

- target-or-system: pooled human IgG (human IgG1, 2, 3 and 4)
readout: Enzyme Activity Endpoint Assay: IgG (ng/µL)
Express it in ng/µL; write the number only.

{"protein": "PRT-465 (protein) MVTSVWTKGVTPPANFTQGEDVFHAPYVANQGWYDITKTFNGKDDLLCGAATAGNMLHWWFDQNKDQIERYLKEHPEKQKINFNGEQMFDVKEAIDTKDSQTDSKLFEYFKEKAFPYLSTKHLGVFPDHVLDMFINGYRLSLTNHGPTPVKEGSKDPRGGIFDAVFTRGDQSKLLTSRHDLKNKTLKEISDLIKQELTEGKALGLSHTYANVRINHVINLWGADFDSEGNLKAIYVTDSDSNASIGMKKYFVGVNSAGKVAISAKEIKEDNIGAQVLGLFTLSTGQDIWNQTNLEHHHHHH", "units-label": "ng/µL", "number": 111}

-- ask Given the protein PRT-523 (protein) MITSVWTKGVTPPTDFIKGEDVFHAPYKAGQGWYDITKTFNGKDNLLCGAATAGNMLHWWFDQNKEEIEAYLKKHPEKQKIIFNNQELFDLKAVINTKDSQTNSALFNYFKDKAFPNLSARRLGVFPDLVLDMFINGYYLNVYKTQTTDVNRTYQTKDRRGGIFDAVFTRGVQSKLLTERHDLKNKTLKEISDLIKQELTEGKALGLSHTYANVRINHVINLWGADFDSNGNLEAIYVTDSDTNASIGMKKYFVGVNSAGKVAISAKEIKEDNIGAQVLGLFTLSTGQDIWNQTNLEHHHHHH , write its reported Enzyme Activity Endpoint Assay: IgG.
-- reply 0
